Every entry's value here was drawn from patent US6352958B1.

For each of the molecules below, state its Postemergence herbicidal activity (% control) SOY.
system: soybean (Glycine max var. Winchester); test: Postemergence herbicidal activity, soybean; format: in vivo; conditions: rate of application 0.3 Kg/Ha, rated after 12-17 days
One number for each entry, in %.

Previously resolved entries follow.
molecule	measuredOn	readoutValue
Cc1cc2c(Cl)cc(F)c(-n3c(=O)cc(C(F)(F)F)n(C)c3=O)c2o1 [Compound 222]	soybean (Glycine max var. Winchester)	100
C=C(C)c1cc2c(Cl)cc(F)c(-n3c(=O)cc(C(F)(F)F)n(C)c3=O)c2o1 [Compound 231]	soybean (Glycine max var. Winchester)	100
CC(=O)OCc1nc2c(-n3c(=O)cc(C(F)(F)F)n(C)c3=O)c(F)cc(Br)c2o1 [Compound 101]	soybean (Glycine max var. Winchester)	95
CCCc1cc2c(Cl)cc(F)c(-n3c(=O)cc(C(F)(F)F)n(C)c3=O)c2o1 [Compound 223]	soybean (Glycine max var. Winchester)	95
CC(=O)OCCc1cc2c(Cl)cc(F)c(-n3c(=O)cc(C(F)(F)F)n(C)c3=O)c2o1 [Compound 260]	soybean (Glycine max var. Winchester)	90
Cn1c(C(F)(F)F)cc(=O)n(-c2c(F)cc(Br)c3oc(N)nc23)c1=O [Compound 98]	soybean (Glycine max var. Winchester)	40

Batch: Postemergence herbicidal activity (% control) SOY for all items listed.
1. Cn1c(C(F)(F)F)cc(=O)n(-c2c(F)cc(Cl)c3oc(C(C)(C)C)nc23)c1=O [Compound 30]
2. CC(C)Oc1nc2c(-n3c(=O)cc(C(F)(F)F)n(C)c3=O)c(F)cc(Br)c2o1 [Compound 107]
3. Cn1c(C(F)(F)F)cc(=O)n(-c2ccc(Cl)c3cc(NC(=O)OC(C)(C)C)oc23)c1=O [Compound 272]
4. CCOC(=O)c1cc2c(N3C(=O)C4=C(CCCC4)C3=O)ccc(Cl)c2[nH]1 [Compound 595]

## Result
[95, 95, 50, 50]

Batch: Postemergence herbicidal activity (% control) SOY for all items listed.
1. CCCC(C)c1cc2c(Cl)cc(F)c(-n3c(=O)cc(C(F)(F)F)n(C)c3=O)c2o1 (centres unmarked) [Compound 229]
2. CNC(=O)c1cc2c(Cl)ccc(-n3c(=O)cc(C(F)(F)F)n(C)c3=O)c2o1 [Compound 270]
3. Cn1c(C(F)(F)F)cc(=O)n(-c2c(F)cc(Cl)c3oc(N)nc23)c1=O [Compound 38]
4. Cc1cc2c(Cl)ccc(-n3c(=O)cc(C(F)(F)F)n(C)c3=O)c2o1 [Compound 221]
5. CCCc1nc2c(-n3c(=O)cc(C(F)(F)F)n(C)c3=O)c(F)cc(Cl)c2o1 [Compound 26]

## Result
1: 95; 2: 70; 3: 70; 4: 95; 5: 96

Batch: Postemergence herbicidal activity (% control) SOY for all items listed.
1. Cn1c(C(F)(F)F)cc(=O)n(-c2c(F)cc(Cl)c3[nH]cnc23)c1=O [Compound 362]
2. Cn1c(C(F)(F)F)cc(=O)n(-c2ccc(Cl)c3cc(C=O)oc23)c1=O [Compound 265]
3. Cn1c(C(F)(F)F)cc(=O)n(-c2c(F)cc(Cl)c3cc(CCCC#N)oc23)c1=O [Compound 256]
4. Cn1c(C(F)(F)F)cc(=O)n(-c2ccc(Cl)c3cc(CO)oc23)c1=O [Compound 238]
5. Cn1c(C(F)(F)F)cc(=O)n(-c2c(F)cc(Cl)c3nc(CCCc4ccccc4)[nH]c23)c1=O [Compound 380]
6. CCc1nc2c(-n3c(=O)cc(C(F)(F)F)n(C)c3=O)c(F)cc(Cl)c2o1 [Compound 25]
7. Cn1c(C(F)(F)F)cc(=O)n(-c2c(F)cc(Cl)c3nc(COc4ccccc4)[nH]c23)c1=O [Compound 378]
8. CC(O)c1cc2c(Cl)cc(F)c(-n3c(=O)cc(C(F)(F)F)n(C)c3=O)c2o1 (centres unmarked) [Compound 240]

## Result
1: 100; 2: 70; 3: 100; 4: 80; 5: 95; 6: 100; 7: 90; 8: 95
